Catalogue of viability, T/C values
- Tested on: ASPS-1 complex tumor spheroids, viability
- Assay text: Anticancer human tumor ASPS-1 cell line growth inhibition;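 note: spheroids exposed to agents for 7 days after 3 days of growth; 100% = DMSO vehicle treated spheroids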
- Protocol conditions: second compound 30 pM; first compound 3 µM; active compounds read low

Compound	viability, T/C / %
Cc1sc2c(c1C)C(c1ccc(Cl)cc1)=NC(CC(=O)Nc1ccc(O)cc1)c1nnc(C)n1-2 (centres undefined) + COc1cc2c(cc1O)CCNC21CSC2c3c(OC(C)=O)c(C)c4c(c3C(COC1=O)N1C(O)C3Cc5cc(C)c(OC)c(O)c5C(C21)N3C)OCO4	83
CNCc1ccc(-c2cc(-c3nc(-c4ccc(S(=O)(=O)C(C)C)cc4)cnc3N)on2)cc1 + COc1cc2c(cc1O)CCNC21CSC2c3c(OC(C)=O)c(C)c4c(c3C(COC1=O)N1C(O)C3Cc5cc(C)c(OC)c(O)c5C(C21)N3C)OCO4	14.9
Cn1ncnc1[C@H]1c2n[nH]c(=O)c3cc(F)cc(c23)N[C@@H]1c1ccc(F)cc1 + COc1cc2c(cc1O)CCNC21CSC2c3c(OC(C)=O)c(C)c4c(c3C(COC1=O)N1C(O)C3Cc5cc(C)c(OC)c(O)c5C(C21)N3C)OCO4	62.8
O=C(c1cc(Cc2n[nH]c(=O)c3ccccc23)ccc1F)N1CCN(C(=O)C2CC2)CC1 + COc1cc2c(cc1O)CCNC21CSC2c3c(OC(C)=O)c(C)c4c(c3C(COC1=O)N1C(O)C3Cc5cc(C)c(OC)c(O)c5C(C21)N3C)OCO4	107

---

- Tested on: ASPS-1 complex tumor spheroids, viability
- Assay text: Anticancer human tumor ASPS-1 cell line growth inhibition;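 note: spheroids exposed to agents for 7 days after 3 days of growth; 100% = DMSO vehicle treated spheroids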
- Protocol conditions: second compound 0.03 µM; first compound 0.0316 µM; active compounds read low
- Experimental: Multicellular complex tumor spheroid response to DNA repair inhibitors in combination with DNA-damaging drugs This study explores the anticancer activities of DNA-damaging drugs and inhibitors of DNA damage repair, both as single agents and in combinations. […] Twenty-six patient-derived or established malignant cell lines were evaluated representing sarcoma, melanoma, small cell lung cancer (SCLC), non-small cell lung cancer (NSCLC), as well as bladder, ovarian and pancreatic cancers. […]
Property name: viability, T/C (%)

Molecule	Value measured
COc1ccc([C@@H](O)c2cc(-c3ncnc4cc(N5CCOCC5)ccc34)c(F)cc2Cl)nn1 + CC[C@@]1(O)C(=O)OCc2c1cc1n(c2=O)Cc2cc3c(CN(C)C)c(O)ccc3nc2-1	82
CC(C)n1c(=O)n(C)c2cnc3cc(F)c(-c4ccc(OCCCN5CCCCC5)nc4)cc3c21 + CC[C@@]1(O)C(=O)OCc2c1cc1n(c2=O)Cc2cc3c(CN(C)C)c(O)ccc3nc2-1	61.1
[2H]c1nc(C)nc([2H])c1-c1cc(NC[C@@H](C)c2cccc3c(C(=O)NC)ccnc23)ncn1 + CC[C@@]1(O)C(=O)OCc2c1cc1n(c2=O)Cc2cc3c(CN(C)C)c(O)ccc3nc2-1	103

---

- System: ASPS-1 complex tumor spheroids, viability
- Assay text: Anticancer human tumor ASPS-1 cell line growth inhibition;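 note: spheroids exposed to agents for 7 days after 3 days of growth; 100% = DMSO vehicle treated spheroids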
- Protocol conditions: second compound 0.00949 µM; first compound 3.16 µM; active compounds read low
- Method: Multicellular complex tumor spheroid response to DNA repair inhibitors in combination with DNA-damaging drugs This study explores the anticancer activities of DNA-damaging drugs and inhibitors of DNA damage repair, both as single agents and in combinations. […] Twenty-six patient-derived or established malignant cell lines were evaluated representing sarcoma, melanoma, small cell lung cancer (SCLC), non-small cell lung cancer (NSCLC), as well as bladder, ovarian and pancreatic cancers. […]
Hi! Could you tag entries with viability, T/C below 70% as true (1), and those at or above as false (0)? Much appreciated.

Molecule	Category
[2H]c1nc(C)nc([2H])c1-c1cc(NC[C@@H](C)c2cccc3c(C(=O)NC)ccnc23)ncn1 + CC[C@@]1(O)C(=O)OCc2c1cc1n(c2=O)Cc2cc3c(CN(C)C)c(O)ccc3nc2-1	false (0)
COc1cc(C)[nH]c(=O)c1CN1CCc2c(Cl)cc(C(OC)C3COC3)c(Cl)c2C1=O (stereo unspecified) + CC[C@@]1(O)C(=O)OCc2c1cc1n(c2=O)Cc2cc3c(CN(C)C)c(O)ccc3nc2-1	false (0)
COc1ccc([C@@H](O)c2cc(-c3ncnc4cc(N5CCOCC5)ccc34)c(F)cc2Cl)nn1 + CC[C@@]1(O)C(=O)OCc2c1cc1n(c2=O)Cc2cc3c(CN(C)C)c(O)ccc3nc2-1	true (1)
CC(C)n1c(=O)n(C)c2cnc3cc(F)c(-c4ccc(OCCCN5CCCCC5)nc4)cc3c21 + CC[C@@]1(O)C(=O)OCc2c1cc1n(c2=O)Cc2cc3c(CN(C)C)c(O)ccc3nc2-1	true (1)
Cc1cc(C)c(CNC(=O)c2cc(-c3ccc(CN4CCOCC4)cc3)cc3c2cnn3C2CCCC2)c(=O)[nH]1 + CC[C@@]1(O)C(=O)OCc2c1cc1n(c2=O)Cc2cc3c(CN(C)C)c(O)ccc3nc2-1	false (0)
CC1COCCN1c1cc(-c2ccnn2C)c2ccnc(-c3ccn[nH]3)c2n1 (stereo unspecified) + CC[C@@]1(O)C(=O)OCc2c1cc1n(c2=O)Cc2cc3c(CN(C)C)c(O)ccc3nc2-1	true (1)
